From: ChEMBL document CHEMBL1201862

# System: OVCAR-5
# Experimental Protocol: NCI tumour cell line growth inhibition, 48 h
Calls of active or inactive are those of the source. Rule as the data show it: active = GI50 up to about 1.1 µM and inactive = higher. *1 amine or outer side, *2 acyl side, *3 side chain or, on linkers, in order; H or OH if unused. Where a SMILES comes first, the peptide text is derived from it. Bridges are numbered along the chain shown (N, C = ends). Roman numbers before positions name the chains, in order. [ ]: non-standard residue; d: D form. Actinocin(9to1) = Cc1c2oc3c(C)ccc(C(=O)[*:1])c3nc-2c(C(=O)[*:2])c(N)c1=O; NMeV = CN[CH](C(=O)O)C(C)C; Sar = CNCC(=O)O
Can you answer with just one of these options? true (1) (active), false (0) (inactive)

Query: Write down the call the test reported for this compound. Item: O=C(CCc1cc(O)cc(O)c1)NCCc1cc(O)cc(OCc2ccccc2)c1
Response: false (0)

Query: Write down the call the test reported for this compound. Item: CCOC(=O)C(=O)Nc1cccc(C)c1C
Response: false (0)

Query: Write down the call the test reported for this compound. Item: Cc1c2oc3c(C)ccc(C(=O)NC4C(=O)NC(Cc5ccccc5)C(=O)N5CCCC5C(=O)N(C)CC(=O)N(C)C(C(C)C)C(=O)OC4C)c3nc-2c(C(=O)NC2C(=O)NC(Cc3ccccc3)C(=O)N3CCCC3C(=O)N(C)CC(=O)N(C)C(C(C)C)C(=O)OC2C)c(N)c1=O (configuration not stated) (I: TFP[Sar][NMeV] / II: TFP[Sar][NMeV]; ester I:1-I:C, II:1-II:C; linker I:N-II:N via Actinocin(9to1); configuration not given here)
Response: true (1)

Query: Write down the call the test reported for this compound. Item: O=C1NC(=S)N(c2cccc3ccccc23)C(=O)/C1=C/c1c[nH]c2ccccc12
Response: false (0)

Query: Write down the call the test reported for this compound. Item: COc1ccc(-c2nc3ncccn3c2-c2ccc(S(C)(=O)=O)cc2)cc1
Response: false (0)

Query: Write down the call the test reported for this compound. Item: NC1CCN(c2nc3ccccc3c3c2CCCC3)CC1
Response: false (0)

Query: Write down the call the test reported for this compound. Item: NCCn1cnc2nc(NC(=O)c3ccccc3)[nH]c(=O)c21
Response: false (0)

###

# Tested on: Malme-3M
# Experimental Protocol: NCI tumour cell line growth inhibition, 48 h
Active and inactive are the calls of the source. Cut-off read from the data, not from the text of the source: active = GI50 up to about 1.1 µM and inactive = higher.
Can you answer with just one of these options? true (1) for active, false (0) for inactive

Query: Write down the call the test reported for this compound. Item: CCOC(=O)c1nc2c(nc1C(=O)OCC)C(=O)c1ccccc1C2=O
Response: true (1)

Query: Write down the call the test reported for this compound. Item: CC1(C)N=c2[nH]cnc2=C(C(N)=O)N1
Response: false (0)

Query: Write down the call the test reported for this compound. Item: CC(=O)CC1=C(OC(C)C)C2(OCCO2)C1O (centres undefined)
Response: false (0)

Query: Write down the call the test reported for this compound. Item: CCCCC1(N=[N+]=[N-])C(=O)C2C=CC=C3c4ccccc4N(C1=O)C32 (centres undefined)
Response: false (0)

Query: Write down the call the test reported for this compound. Item: CC(=O)N1N=C(c2ccc3ccccc3c2O)CC1c1ccc(Cl)cc1Cl (centres undefined)
Response: false (0)

Query: Write down the call the test reported for this compound. Item: CCOC(=O)C(=O)Nc1cccc(C)c1C
Response: false (0)

Query: Write down the call the test reported for this compound. Item: O=C1C(=O)N(C2C3CC4CC(C3)CC2C4)C(=O)C(=O)C1c1nc2ccccc2o1 (centres undefined)
Response: false (0)

Query: Write down the call the test reported for this compound. Item: CC(=O)NC1C(OCc2ccccc2)OC(CO)C(O)C1OCC(=O)N[C@@H](C)C(=O)N[C@H](CCC(=O)NCCCNc1ccc([N+](=O)[O-])c2[nH]c3ccccc3c(=O)c12)C(N)=O (some centres undefined)
Response: false (0)

Query: Write down the call the test reported for this compound. Item: CCCCCCCCCCCCCCCCCCNc1ccn(C2OC(COP(=O)(O)OCC3OC(n4cc(C)c(=O)[nH]c4=O)CC3N=[N+]=[N-])C(O)C2O)c(=O)n1 (centres undefined)
Response: false (0)
